- Tested on: Penicillinresistant S. aureus (5 strains)
- Protocol text: MIC, two-fold serial agar dilution, group (G+)-Ib
- Type: cell-based
- Setup conditions: Staphylococcus aureus, Mueller-Hinton agar; 5 strains; read-out: Geometric Mean of MIC, (G+)-Ib
Each item that follows carries a reported MIC.
Entry rule: numbers only, all in µg/mL.

GET /value?item= CON=C(C(=O)NC1C(=O)N2C(C(=O)[O-])=C(/C=C/C[n+]3cccc(NC=O)c3)CSC12)c1nsc(N)n1 (centres unmarked) &field=MIC returns 0.4

GET /value?item= C#CCON=C(C(=O)NC1C(=O)N2C(C(=O)[O-])=C(/C=C/C[n+]3ccc(C(N)=O)cc3)CSC12)c1nsc(N)n1 (centres unmarked) &field=MIC returns 0.46

GET /value?item= CON=C(C(=O)NC1C(=O)N2C(C(=O)[O-])=C(C=CC[n+]3ccccc3)CSC12)c1nsc(N)n1 (centres unmarked) &field=MIC returns 0.8

Continuing:
GET /value?item= NC(=O)c1cc[n+](C/C=C/C2=C(C(=O)[O-])N3C(=O)C(NC(=O)C(=NOC4CCCC4)c4nsc(N)n4)C3SC2)cc1 (centres unmarked) &field=MIC returns 0.4

GET /value?item= CON=C(C(=O)NC1C(=O)N2C(C(=O)[O-])=C(/C=C/C[n+]3ccc(CO)cc3)CSC12)c1nsc(N)n1 (centres unmarked) &field=MIC returns 0.61

----------
- System: Penicillinresistant S. aureus (5 strains)
- Protocol text: MIC, two-fold serial agar dilution, group (G+)-Ib
- Format: cell-based
- Setup conditions: Staphylococcus aureus, Mueller-Hinton agar; 5 strains; read-out: Geometric Mean of MIC, (G+)-Ib
Each item that follows carries a reported MIC.
Entry rule: numbers only, all in µg/mL.

Study these solved cases before continuing.
GET /value?item= CON=C(C(=O)NC1C(=O)N2C(C(=O)[O-])=C(C=CC[N+]3(C)CCCC3)CSC12)c1nsc(N)n1 (stereo not shown) [I-1A E/Z = 1/1] &field=MIC returns 0.7

GET /value?item= CON=C(C(=O)NC1C(=O)N2C(C(=O)[O-])=C(/C=C/C[n+]3cccc(C(N)=O)c3)CSC12)c1nsc(N)n1 (stereo not shown) [Compound I-1G] &field=MIC returns 0.35

GET /value?item= CON=C(C(=O)NC1C(=O)N2C(C(=O)[O-])=C(/C=C/C[n+]3ccccc3)CSC12)c1nsc(N)n1 (stereo not shown) [I-1B E] &field=MIC returns 0.4

GET /value?item= CNC(=O)c1cc[n+](C/C=C/C2=C(C(=O)[O-])N3C(=O)C(NC(=O)/C(=N\OC)c4nsc(N)n4)C3SC2)cc1 (stereo not shown) [Compound I-1M] &field=MIC returns 0.7

GET /value?item= CON=C(C(=O)NC1C(=O)N2C(C(=O)[O-])=C(/C=C/C[n+]3ccc(C(N)=O)cc3)CSC12)c1nsc(N)n1 (stereo not shown) [Compound I-1H] &field=MIC returns 0.4

Continuing:
GET /value?item= C=CCON=C(C(=O)NC1C(=O)N2C(C(=O)[O-])=C(/C=C/C[n+]3ccc(C(N)=O)cc3)CSC12)c1nsc(N)n1 (stereo not shown) [Compound I-3H] &field=MIC returns 0.4

GET /value?item= CON=C(C(=O)NC1C(=O)N2C(C(=O)[O-])=C(/C=C/C[n+]3ccc(SCC(=O)O)cc3)CSC12)c1nsc(N)n1 (stereo not shown) [Compound I-1Q] &field=MIC returns 0.92

GET /value?item= CON=C(C(=O)NC1C(=O)N2C(C(=O)[O-])=C(C=CC[n+]3ccc(C(=O)O)cc3)CSC12)c1nsc(N)n1 (stereo not shown) [Compound I-1N] &field=MIC returns 1.6

GET /value?item= CON=C(C(=O)NC1C(=O)N2C(C(=O)[O-])=C(/C=C/C[n+]3ccsc3C)CSC12)c1nsc(N)n1 (stereo not shown) [Compound I-1J] &field=MIC returns 0.35

GET /value?item= CON=C(C(=O)NC1C(=O)N2C(C(=O)[O-])=C(/C=C/C[n+]3cccc(CN)c3)CSC12)c1nsc(N)n1 (stereo not shown) [Compound I-1I] &field=MIC returns 1.6

GET /value?item= CO/N=C(\C(=O)NC1C(=O)N2C(C(=O)[O-])=C(/C=C/C[n+]3cccc4c3CCC4)CSC12)c1nsc(N)n1 (stereo not shown) [Compound I-1O] &field=MIC returns 0.35

GET /value?item= CCO/N=C(\C(=O)NC1C(=O)N2C(C(=O)[O-])=C(/C=C\C[n+]3ccc(C(=O)O)cc3)CSC12)c1nsc(N)n1 (stereo not shown) [I-2N Z] &field=MIC returns 3.1

GET /value?item= CON=C(C(=O)NC1C(=O)N2C(C(=O)[O-])=C(/C=C/C[n+]3cccc(CO)c3)CSC12)c1nsc(N)n1 (stereo not shown) [Compound I-1K] &field=MIC returns 0.8
